# ASSAY TARGET: T1, rhNav1.7α + β1-β2-β3 (rhesus monkey)
# T1 construct: also called rhNav1.7-beta1-beta2-beta3; rhNav1.7-β1-β2-β3
# TEST NAME: binding FACS, CHO FlpIn
TEST READOUT: pEC50
One number for each entry, as −log10 of the molar value.

Below: 5 binders and their reported pEC50.
BINDER	pEC50
F010302351 (VHH) VHH: EVQLVESGGGVVQPGGSLRLSCAASSRQFIRDVFTGWYRRAPGKQRELVARIYESGNTQYADSVKGRFTISRDNAKKTVYLQMNSLRPEDTALYYCLFSGTISTGREYRSGDYWGQGTLVTVSS	7.82
F010301874 (VHH, also called F0103464B09(L11V, V40A, S68T, T79Y, R81Q, S82aN, N82bS, K83R, G88A, V89L)) VHH: EVQLVESGGGVVQPGGSLRLSCATTSRAFIRDVFTGWYRRAPGKERELVARIYNGGNTNYADFAKGRFTISRDNAKKMVYLQMNSLRPEDTALYYCLFSGTINTGREYRSGDYWGQGTLVTVSS	7.26
F010302358 (VHH) VHH: EVQLVESGGGVVQPGGSLRLSCAASSRQFIRDVFTGWYRQAPGKQRELVARIYNEGNTQYADSVKGRFTISRDNAKKTVYLQMNSLRPEDTALYYCLFSGTISTGREYRSGDYWGQGTLVTVSS	7.43
F010302335 (VHH) VHH: EVQLVESGGGVVQPGGSLRLSCAASSRQFIRDVFTGWYRRAPGKQRELVARIYESGNTQYADSAKGRFTISRDNAKKTVYLQMNSLRPEDTALYYCLFSGTISTGREYRSGDYWGQGTLVTVSS	7.89
F010301938 (VHH, also called F0103464B09(L11V, N82bS, K83R, V89L)) VHH: EVQLVESGGGVVQPGGSLRLSCATTSRAFIRDVFTGWYRRVPGKERELVARIYNGGNTNYADFAKGRFSISRDNAKKMVTLRMSSLRPEDTGLYYCLFSGTINTGREYRSGDYWGQGTLVTVSS	7.70

List the reported pEC50 of each binder below.
1. F010302354 (VHH) VHH: EVQLVESGGGVVQPGGSLRLSCAASHRAFIRDVFTGWYRRAPGKQRELVARIYESGNTQYADSVKGRFTISRDNAKKTVYLQMNSLRPEDTALYYCLFSGTISTGREYRSGDYWGQGTLVTVSS
2. F010301937 (VHH, also called F0103464B09(L11V, S82aN, K83R, V89L)) VHH: EVQLVESGGGVVQPGGSLRLSCATTSRAFIRDVFTGWYRRVPGKERELVARIYNGGNTNYADFAKGRFSISRDNAKKMVTLRMNNLRPEDTGLYYCLFSGTINTGREYRSGDYWGQGTLVTVSS
3. F010301872 (VHH, also called F0103464B09(L11V, T25S, S68T, T79Y, R81Q, S82aN, N82bS, K83R, G88A, V89L)) VHH: EVQLVESGGGVVQPGGSLRLSCATSSRAFIRDVFTGWYRRVPGKERELVARIYNGGNTNYADFAKGRFTISRDNAKKMVYLQMNSLRPEDTALYYCLFSGTINTGREYRSGDYWGQGTLVTVSS

A.
8.10
7.70
7.24
